The values you see were collected from PubChem BioAssay (NCI).

# Tested on: IGROV1 ovarian
# protocolText: NCI-60 one-dose screen, 48 h (100 = growth as untreated, 0 = no growth, -100 = all killed)
# conditionLabel: 10 µM unless noted
# Protocol: Growth inhibition of the IGROV1 human tumor cell line is measured as a screen for anti-cancer activity. Cells are grown in 96 well plates and exposed to the test compound for 48 hours. Compounds are tested at a single concentration, which is 10^-5 M for most compounds. The reported endpoint is percent growth (GI% or GIPRCNT), where numbers from 0 - 100% represent growth inhibition, and numbers from -100% - 0 represent cell death. For example, a value of 40 represents 60% growth inhibition. […]
This is part of a sample that, as a whole, favours compounds with a hit. Of some 83,000 tested, about 20% had one in any assay.
measure: growth (%)
API: value field is a number in %; no unit string.

growth recorded for this compound, `c1ccc(-c2cc3cc4ccccc4cn3c2)cc1` , is 79.7

Record `CC(=O)Nc1ccc(C(=O)CCl)cc1` . Reported growth: 93.2

Notebook: CCCCCCCCCCCC[S+](C)CC(=O)[O-] (centres undefined) , growth read as 12.8

Input `NC(=S)N/N=C\c1nccc2c(N)cccc12` . Output growth: 10.9

# growth (compound: `CCCN(CCC)C(=O)c1ccc(C)cc1` ) is 106

Sample CC1=CC(=O)C=CC1(C)C(Cl)(Cl)Cl (centres undefined) ; growth observed: 100

The compound `OC(Cc1cc(CC(O)(C(F)(F)F)C(F)(F)F)nc(CC(O)(C(F)(F)F)C(F)(F)F)c1)(C(F)(F)F)C(F)(F)F` showed growth equal to 20.4

Given item `Cc1cc2nc(CC(=O)c3ccncc3)c(=O)[nH]c2cc1C` , the value recorded as its growth is 105

Just so you know, measured growth for `NNc1cccc([N+](=O)[O-])c1` came out at 83

Reported growth of CC1CC(C)(C)OB(OC(C)CC(C)(C)OB2OC(C)CC(C)(C)O2)O1 (centres undefined) : 107

Briefly, growth measured for `Clc1ccc(-n2ncc3c(NCCCN4CCOCC4)ncnc32)cc1` : 103

The compound identified as `CN(C)c1ccc(/C=C/c2nccc3ccccc23)cc1` registered its growth at 78.5

Field growth (entry `COc1ccc2nc3cc([N+](=O)[O-])ccc3c(NNc3ccccc3)c2c1` ) reads 88.2

Please fill in: growth reported for `CCCCCC[C@@H](O)C/C=C\CCCCCCCC(=O)OCCOC` = 114

// sample `O=S(=O)(O)c1cnccn1` , its growth was 105

The value of growth measured for the compound `O=[N+]([O-])C=C(c1ccccc1)c1ccccc1` turned out to be 86.5

// growth value for `Oc1ccc2ccccc2c1N=Nc1nccs1` : 184

Form field growth, entry `O=C(O)c1cccc2cccc(-c3c4ccc(=O)c(O)c-4oc4c(O)c(O)ccc34)c12` : 101

// `Oc1ccc(Nc2ccc3ccccc3c2)cc1` : growth value = 58.1

`O=[N+]([O-])c1ccc([I+]c2ccccc2)cc1` yielded growth of 43.4

According to the records, this compound `O/N=C1\c2ccccc2-c2ccc(F)cc21` displays growth of 85.4

Per the records, this compound ( `O=C1C(=O)c2cc([N+](=O)[O-])ccc2-c2ccccc21` ) has growth equal to -72.5

Lookup result for `CCOC(=O)NC(/C=C/c1ccccc1)NC(=O)OCC` ; measured growth: 106

growth reported for this compound `CN(C)c1ccc(C(C#N)(c2ccccc2)c2ccc(N(C)C)cc2)cc1` : 83

The compound listed as `Oc1ccc2c(c1)CCc1ccccc1-2` shows growth equal to 116

CCN(CC)CC(O)c1cc(-c2ccc(Cl)cc2)nc2cc(Cl)ccc12 (centres undefined) has a reported growth of 10.3

# growth (compound: `CCCCCCCCCCCCSC(=N)N` ) is -15.2

The compound identified as `CCCCCCN(CCCCCC)CCCNc1nccc2ccccc12` registered its growth at 12.5

// `O=C1/C(=C/c2ccccc2)CCC/C1=C\c1ccccc1` : growth value = 80

Per the records, this compound ( OC(c1cc(C23CC4CC(CC(C4)C2)C3)nc2c(Cl)cc(Cl)cc12)C1CCCCN1 (centres undefined) ) has growth equal to -61.7

Entry `CCCCCCCCCCCC[n+]1ccc2ccccc2c1` ; growth = -51.9

growth recorded for this compound, `Oc1cc(Cl)ccc1Cc1ccc(Cl)cc1O` , is 82.5

Sure, the documented growth for `Oc1ccc2ccccc2c1N=Nc1ccccn1` is 25

// field: growth; key: CCC(C)(O)Cc1ccc(Cl)cc1 (centres undefined) ; value = 114

// growth value for `C1=C(c2ccccc2)c2ccccc2C1` : 101

Entry under test: `O=C(Nc1ccc(Cl)c(Cl)c1)Nc1ccccc1O` . Its growth was 72.7

Summary for this compound, `CCOC(=O)/C(=C\c1ccc2ccccc2c1)P(=O)(OCC)OCC` : growth is 56

# growth (compound: `Cc1cc(N/N=C/c2ccccn2)nc2ccccc12` ) is 2.45

For `c1ccc(-c2cccc(-c3ccccn3)n2)nc1` the compound record lists growth as 19.3

For record `C/C(=N/NC(N)=S)c1ccc(C)cc1` the listed growth is 105

The measured growth associated with `CC(C)=C1C=C2CC[C@@H]3[C@](C)(CCC[C@@]3(C)C(=O)O)[C@H]2CC1` reads 103

Notebook: `COc1ccc(NC(=O)/C(=C/N2C(=O)/C(=C/c3ccc(OC)c(OC)c3)NC2=S)C(C)=O)cc1` , growth read as 74.7

growth reported for this compound `CN(C)c1ccc2cc3c(cc2c1)Oc1ccccc1N3.[Cl][Zn][Cl]` : 78.5

The compound identified as `O=C(CCl)N1c2ccccc2Sc2c1ccc1ccccc21` registered its growth at 34.4

Just so you know, measured growth for `O=C(Cc1nc2cc(Cl)c(Cl)cc2nc1CC(=O)c1ccccc1)c1ccccc1` came out at 61

Given item `O=C1C=CC(=O)N1c1cc(Cl)c(Cl)cc1Cl` , the value recorded as its growth is 93.7

Consider `O=C(Cc1nc2cc(Cl)c(Cl)cc2nc1CC(=O)c1cccnc1)c1cccnc1` . Its measured growth is 73.6

Recorded growth (compound `Cc1cc(C(=C2C=CC(=Nc3ccccc3)C=C2)c2ccc(Nc3ccccc3)cc2)ccc1N` ): -26.9

Measured growth, `Cc1ccc2c(c1)sc(-c1ccc(N(C)C)cc1)[n+]2C` : 8.14
